# target-entity: HLA-B*3501 (Homo sapiens, UniProt P01889, A329T/A93T/A95T/C349S/D201E/D98Y/E176V/E187L/E204Q/E69T/I218V/K202T/L119I/Q94N/R155S/R180L/S121R/S35A/S48A/T118I/V127L/V306I/V36M/Y140S/Y91F)
# procedure-details: HLA-B*3501 peptide binding assay
pIC50: −log10 of the molar value. Where no end group is shown, it is not given here.

{"sequence-entry": "HPDIVIYQY", "pIC50": 8.10}
